# reported TGI; entries follow
system: KM20L2 colon; experiment: NCI tumour cell line growth inhibition, 48 h

{"columns": ["molecule", "tgt", "result"],
 "data": [
  ["OCCNCN(CNCCO)c1nc(N(CNCCO)CNCCO)nc(N(CNCCO)CNCCO)n1", "KM20L2 colon", "0.322 µM"],
  ["CC(C)OP(=O)(OC(C)C)/C(F)=N/Nc1ccc([N+](=O)[O-])cc1", "KM20L2 colon", "> 100 µM"],
  ["CN(C)CCNC(=O)C1COc2cc(-c3cc(=O)c4ccccc4o3)ccc2O1 (stereo unspecified)", "KM20L2 colon", "56.5 µM"],
  ["CCCCCCC1=NOC(C(c2cc[nH]c2)N(C)[C@H](C(=O)OC)C(C)C)C1 (stereo partly specified)", "KM20L2 colon", "> 100 µM"],
  ["O=C([CH-]C(=O)C(F)(F)F)c1ccccc1.O=C([CH-]C(=O)C(F)(F)F)c1ccccc1.[O]=[U+2]=[O]", "KM20L2 colon", "> 100 µM"]
]}

Assign TGI to the following record: CC(=O)Nc1ccc(C(=O)NN2C(=O)C(Cl)C2c2cc(Br)cc(Br)c2O)cc1 (stereo unspecified)
> 100 µM

Assign TGI to the following record: CN(C)C(=S)/N=c1\ssc(=Nc2ccccc2)n1C
> 100 µM

Assign TGI to the following record: CC1(C)OCC[C@@H]1[Si](C)(C)C
> 100 µM

Assign TGI to the following record: CC[N-]c1nnnn1CC.[Au+].c1ccc([PH+](c2ccccc2)c2ccccc2)cc1
12.9 µM

Assign TGI to the following record: CCOC(=O)C1=C(C)N2CCOC2(C)C(C(=O)OC)C1c1cccc(Cl)c1 (stereo unspecified)
> 100 µM

Assign TGI to the following record: CCCCCCCC/C=C/CCCCCCCC(=O)N(O)C1CC(n2cc(C)c(=O)[nH]c2=O)OC1CO (stereo unspecified)
16.4 µM

----------
tested on: RXF 393 renal; assay: NCI tumour cell line growth inhibition, 48 h
measured-endpoint: TGI

Assign TGI to the following record: CCC1c2[nH]c3ccccc3c2C[C@H]2C(=O)NC(Cc3c[nH]c4ccccc34)C(=O)N12 (stereo not given in full)
37.1 µM

Assign TGI to the following record: COC(=O)C1(CCC(=O)N(C)c2ccccc2)NNC2C(=O)N(c3ccccc3)C(=O)C21 (stereo not given)
> 10 µM

----------
test system: SF-295 CNS; experiment: NCI tumour cell line growth inhibition, 48 h
measured-endpoint: TGI

Assign TGI to the following record: CO/C(=N\N=C\c1ccccc1F)c1ccncc1
> 10 µM

Assign TGI to the following record: COc1cc2nccc(Oc3ccc(NC(=O)C4(C(=O)Nc5ccc(F)cc5)CC4)cc3)c2cc1OC(=O)c1ccc(N)cc1
1.47 µM

----------
system: UACC-62 melanoma; assay: NCI tumour cell line growth inhibition, 48 h
measured-endpoint: TGI

{"columns": ["molecule", "result"],
 "data": [
  ["CN(C)CCNS(=O)(=O)N(C)C", "> 100 µM"],
  ["COC(=O)[C@@H]1c2[nH]c3ccccc3c2C[C@@H]2c3ccccc3NC(=O)[C@@H]21", "> 100 µM"],
  ["[N-]=[N+]=Nc1ncnc2c1sc(=S)n2-c1ccccc1", "> 100 µM"],
  ["CN(C)C(=S)/N=c1\\ssc(=Nc2ccccc2)n1C", "> 100 µM"],
  ["CC(C)OP(=O)(OC(C)C)/C(F)=N/Nc1ccc([N+](=O)[O-])cc1", "> 100 µM"],
  ["CCOC(=O)c1cc(C(=O)c2cc(OC)c(OC)c(OC)c2)n2nc(C)ccc12", "> 100 µM"],
  ["CN1CCN(Cc2nc3cccc4c3c([n+]2[O-])-c2ccccc2-4)CC1", "> 56.4 µM"],
  ["O=S(=O)(Nc1nccs1)c1ccc(Nc2nc(-c3cccs3)nc3ccc(I)cc23)cc1", "52.6 µM"],
  ["CC(C)(C(=O)NCC(F)(F)C(F)(F)F)C(=O)N[C@@H]1C(=O)Nc2ccccc2-c2ccccc21", "> 100 µM"],
  ["NC(=O)CC(N)C(N)=O (stereo unspecified)", "> 100 µM"]
]}

Assign TGI to the following record: Cc1ncc([N+](=O)[O-])n1CCNC(=O)CCC(=O)NCCCn1ccnc1[N+](=O)[O-]
> 100 µM
